# Tested on: Dorea formicigenerans ATCC 27755 "DFO.36"
# Test: Sugar-supported growth of commensal bacteria, DFO.36
# Assay type: cell-based
# Condition Set: 0.5% w/v sugar, 37° C., 18-24 hours, anaerobic; OD600 divided by OD600 with 0.5% w/v dextrose
Assay Readout: Average Normalized Growth (NGV), DFO.36

# Compound, Average Normalized Growth (NGV), DFO.36
records = [
    ("C[C@H](O)[C@H](O)[C@@H](O)[C@@H](O)C=O [L-rhamnose]", "− (<0.2)"),
    ("O=C[C@@H](O)[C@@H](O)[C@H](O)[C@H](O)CO [D-mannose]", "− (<0.2)"),
    ("O=C[C@@H](O)[C@H](O)[C@H](O)CO [D (−) arabinose]", "− (<0.2)"),
    ("O=C[C@H](O)[C@@H](O)[C@H](O)CO [D-xylose]", "− (<0.2)"),
    ("O=C[C@H](O)[C@H](O)[C@H](O)CO [ribose]", "+++ (>1)"),
    ("OC[C@H]1O[C@H](O[C@H]2[C@H](O)[C@@H](O)[C@H](O)O[C@@H]2CO)[C@H](O)[C@@H](O)[C@@H]1O [D (+) maltose]", "+++ (>1)"),
    ("O=C[C@H](O)[C@@H](O)[C@@H](O)CO [L-arabinose]", "+++ (>1)"),
    ("O=C(CO)[C@@H](O)[C@H](O)[C@H](O)CO [D-fructose]", "+++ (>1)"),
    ("C[C@H](O)[C@@H](O)[C@@H](O)[C@H](O)C=O [L-fucose]", "− (<0.2)"),
]

Now for another entry.
The compound identified as OC[C@H]1O[C@@H](O[C@H]2[C@H](O)[C@@H](O)C(O)O[C@@H]2CO)[C@H](O)[C@@H](O)[C@H]1O (some centres unmarked) [lactose] registered its Average Normalized Growth (NGV), DFO.36 at +++ (>1)

----------
# System: Bacteroides thetaiotaomicron ATCC 29741 "BTH.8"
# Test: Sugar-supported growth of commensal bacteria, BTH.8
# Type: cell-based
# Condition Set: 0.5% w/v sugar, 37° C., 18-24 hours, anaerobic; OD600 divided by OD600 with 0.5% w/v dextrose
# Procedure: An in vitro assay was performed to assess the ability of various bacterial strains, including commensals of the gastrointestinal tract, to utilize different sugars as growth substrates. This assay was designed to assess the ability of selected natural monosaccharides, disaccharides and synthetic sugars to promote the growth of microbiota associated with a healthy state. Bacterial strains were handled at all steps in an anaerobic chamber (AS-580, Anaerobe Systems) featuring a palladium catalyst. […]
Assay Readout: Average Normalized Growth (NGV), BTH.8

Past entries and their recorded results:
# Molecule, Observed Result
records = [
    ("OC[C@H]1O[C@@H](O[C@H]2[C@H](O)[C@@H](O)C(O)O[C@@H]2CO)[C@H](O)[C@@H](O)[C@H]1O (stereo partly drawn) [lactose]", "+++ (>1)"),
    ("O=C[C@H](O)[C@@H](O)[C@H](O)CO [D-xylose]", "+++ (>1)"),
    ("O=C[C@H](O)[C@@H](O)[C@@H](O)CO [L-arabinose]", "+++ (>1)"),
    ("C[C@H](O)[C@H](O)[C@@H](O)[C@@H](O)C=O [L-rhamnose]", "+ (0.2-0.6)"),
]

I have 3 molecules here; please give me Average Normalized Growth (NGV), BTH.8 for each one.
1. C[C@H](O)[C@@H](O)[C@@H](O)[C@H](O)C=O [L-fucose]
2. O=C[C@H](O)[C@@H](O)[C@@H](O)[C@H](O)CO [D-galactose]
3. OC[C@H]1O[C@H](O[C@H]2[C@H](O)[C@@H](O)[C@H](O)O[C@@H]2CO)[C@H](O)[C@@H](O)[C@@H]1O [D (+) maltose]

["+ (0.2-0.6)", "+++ (>1)", "+++ (>1)"]

----------
# System: Bifidobacterium longum DSM 20088 "BLO.83"
# Test: Sugar-supported growth of commensal bacteria, BLO.83
# Assay type: cell-based
# Condition Set: 0.5% w/v sugar, 37° C., 18-24 hours, anaerobic; OD600 divided by OD600 with 0.5% w/v dextrose

# Molecule, Average Normalized Growth (NGV), BLO.83
records = [
    ("O=C[C@H](O)[C@@H](O)[C@@H](O)[C@H](O)CO", "+++ (>1)"),
    ("O=C(CO)[C@@H](O)[C@H](O)[C@H](O)CO", "+++ (>1)"),
    ("OC[C@H]1O[C@@H](O[C@H]2[C@H](O)[C@@H](O)C(O)O[C@@H]2CO)[C@H](O)[C@@H](O)[C@H]1O (stereo partly shown)", "+++ (>1)"),
]

----------
# Test system: Bacteroides caccae ATCC 43185 "BCA.26"
# Test: Sugar-supported growth of commensal bacteria, BCA.26
# Assay type: cell-based
# Condition Set: 0.5% w/v sugar, 37° C., 18-24 hours, anaerobic; OD600 divided by OD600 with 0.5% w/v dextrose
Assay Readout: Average Normalized Growth (NGV), BCA.26

Past entries and their recorded results:
# Compound, Average Normalized Growth (NGV), BCA.26
records = [
    ("O=C[C@H](O)[C@@H](O)[C@@H](O)[C@H](O)CO", "++ (0.6-1)"),
    ("C[C@H](O)[C@H](O)[C@@H](O)[C@@H](O)C=O", "− (<0.2)"),
    ("O=C[C@@H](O)[C@H](O)[C@H](O)CO [D (−) arabinose]", "++ (0.6-1)"),
    ("O=C[C@@H](O)[C@@H](O)[C@H](O)[C@H](O)CO", "+++ (>1)"),
    ("OC[C@H]1O[C@@H](O[C@@H]2[C@@H](CO)OC(O)(CO)[C@H]2O)[C@H](O)[C@@H](O)[C@H]1O (mixture of isomers)", "++ (0.6-1)"),
    ("OC[C@H]1O[C@@H](O[C@H]2[C@H](O)[C@@H](O)C(O)O[C@@H]2CO)[C@H](O)[C@@H](O)[C@H]1O (stereo partly shown)", "+++ (>1)"),
    ("O=C[C@H](O)[C@@H](O)[C@@H](O)CO", "+++ (>1)"),
    ("OC[C@@H](O)[C@@H](O)[C@H](O)[C@H](O)CO", "− (<0.2)"),
    ("O=C[C@H](O)[C@@H](O)[C@H](O)CO", "+++ (>1)"),
    ("O=C[C@H](O)[C@H](O)[C@H](O)CO", "− (<0.2)"),
]

I have 2 compounds here; please give me Average Normalized Growth (NGV), BCA.26 for each one.
1. C[C@H](O)[C@@H](O)[C@@H](O)[C@H](O)C=O
2. O=C(CO)[C@@H](O)[C@H](O)[C@H](O)CO

["+++ (>1)", "++ (0.6-1)"]

----------
# Tested on: Bacteroides thetaiotaomicron ATCC 29741 "BTH.8"
# Test: Sugar-supported growth of commensal bacteria, BTH.8
# Format: cell-based
# Condition Set: 0.5% w/v sugar, 37° C., 18-24 hours, anaerobic; OD600 divided by OD600 with 0.5% w/v dextrose

# Molecule, Average Normalized Growth (NGV), BTH.8
measured = [
    ("O=C[C@H](O)[C@H](O)[C@H](O)CO", "− (<0.2)"),
    ("OC[C@H]1O[C@@H](O[C@@H]2[C@@H](CO)OC(O)(CO)[C@H]2O)[C@H](O)[C@@H](O)[C@H]1O (mixture of isomers)", "− (<0.2)"),
]

FYI, the data here is from patent US20200009168A1.
